target.or.test.system: T1, Human Clec7A (human, UniProt Q9BXN2 1-247)
T1 construct: also called hClec7A
T1 sequence: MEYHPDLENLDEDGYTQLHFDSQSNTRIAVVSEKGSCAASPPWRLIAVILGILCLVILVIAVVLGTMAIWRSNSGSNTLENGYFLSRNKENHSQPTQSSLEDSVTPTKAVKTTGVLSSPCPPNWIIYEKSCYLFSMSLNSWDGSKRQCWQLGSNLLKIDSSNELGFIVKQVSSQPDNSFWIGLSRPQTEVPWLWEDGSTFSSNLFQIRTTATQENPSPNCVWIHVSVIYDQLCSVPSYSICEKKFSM
test.name: flow, Jurkat, 100 nM Ab
test.readout: MFI normalized to WT
Answer with the value's number alone.

// MFI normalized to WT lookup, key: KM12.2.3 (antibody, human IgG1, V domains shown) VH: EVQLVESGGGLVQPGGSLRLSCAASGFTFSSYAMSWIRQAPGKGLEWVSAISGSGGSIYYADSVKGRFTISRDNSKNTLYLQMNSLRAEDTAVYYCARGYSDSYFYGPYYTFDYWGQGTLVTVSS VL: DIQMTQSPSSLSASVGDRVTITCRASQGISSYLNWYQQKPGKAPKLLIYAASSLQSGVSSRFSGSGSGTDFTLTISSLQPEDFATYYCQQSYNTPLTFGQGTKVEIK
1.11

Origin of values: patent US20210122826A1
